pIC50: −log10 of the molar value.
Recorded pIC50 for compounds tested on Fibroblast growth factor receptor 1 (Homo sapiens), drawn from a number of studies.

Examples with answers:
compound	pIC50
CCN1CCC[C@@H]1C(=O)N(C)Cc1cc2c(nc1C=O)N(C(=O)Nc1cc(NCCOC)c(C#N)cn1)CCC2	< 5.00
CC(Oc1ccc2[nH]nc(/C=C/c3ccc(CN4CCC(O)C4)cc3)c2c1)c1c(Cl)cncc1Cl (centres unmarked)	≥ 8.00
CNS(=O)(=O)c1ccc2c(c1)/C(=C1\CCc3c1[nH]c(C)c3C(=O)NCCN(C)C)C(=O)N2	7.77
Cn1cc(-c2cn3ncc(-c4cccc5[nH]ncc45)c3nc2O[C@H]2CCOC2)cn1	7.52 to 8.00
COc1cc(OC)c(F)c(N2Cc3cnc(NCc4ccccn4)cc3C3(CC3)C2=O)c1F	> 7.00

Okay, here is my list. What is pIC50 for each of these?
1. CCN1CCC(Nc2ccc3c(c2)/C(=C(\c2cccc(Cl)c2)c2ncc[nH]2)C(=O)N3)CC1
2. COc1cc2nccc(Oc3ccc(NC(=S)N4CC(F)(F)C4)c(Cl)c3)c2cc1NC(C)=O
3. CC(Oc1ccc2[nH]nc(/C=C/c3ccc(CN(CCN(C)C)Cc4ccccc4)cc3)c2c1)c1c(Cl)cncc1Cl (centres unmarked)

Result string:
1. > 7.30
2. 6.00 to 6.70
3. 6.00 to 7.30

Okay, here is my list. What is pIC50 for each of these?
1. COc1cc(Nc2ncnc(Nc3ccc(Br)c(Cl)c3)n2)cc(OC)c1OC
2. COc1cc(Nc2ncnc(-n3c(Cl)nc4ccccc43)n2)cc(OC)c1OC
3. CCN1CCC(Nc2ccc3c(c2)/C(=C(\c2ccc(F)c(F)c2)c2nc(C)c[nH]2)C(=O)N3)CC1

Result string:
1: 5.29 to 6.07; 2: > 6.01; 3: > 7.30

---

Recorded IC50 for molecules tested on Fibroblast growth factor receptor 1 (Homo sapiens, UniProt P11362), drawn from a number of studies.

Examples with answers:
item.smiles	study.target	recorded.metric	reading
COCCCNc1c(Nc2ccc(Oc3ccnc4cc(OC)c(C(N)=O)cc34)cc2Cl)c(=O)c1=O	Fibroblast growth factor receptor 1 (Homo sapiens, UniProt P11362)	IC50	0.2 to 1 µM
CCOC(=O)Cc1cn(-c2ncnc(Nc3cc(OC)c(OC)c(OC)c3)n2)c2ccccc12	Fibroblast growth factor receptor 1 (Homo sapiens, UniProt P11362)	IC50	< 0.863 µM
Cn1cc(-c2ccc3c(c2)ncn3-c2cc(NS(=O)(=O)C3CC3)cc(-c3ccc(F)cc3F)c2)cn1	Fibroblast growth factor receptor 1 (Homo sapiens, UniProt P11362)	IC50	0.012 µM
COc1cc2nccc(Oc3ccc(NC(=O)N4CC[C@H](F)C4)c(Cl)c3F)c2cc1C(N)=O	Fibroblast growth factor receptor 1 (Homo sapiens, UniProt P11362)	IC50	0.2 to 1 µM
C=CC(=O)NCc1cc2c(cn1)CN(c1c(F)c(OC)cc(OC)c1F)C(=O)C21CCCC1	Fibroblast growth factor receptor 1 (Homo sapiens, UniProt P11362)	IC50	> 0.2 µM
CNC(=O)Cn1cc(-c2n[nH]c3cc(-c4c(Cl)c(OC)cc(OC)c4Cl)ncc23)cn1	Fibroblast growth factor receptor 1 (Homo sapiens, UniProt P11362)	IC50	< 0.1 µM

// below: IC50 requested for another molecule
Query string: State its IC50 for this molecule: CCNC(=O)c1coc2cc(Oc3ccnc4cc(-c5cn(C)cn5)ccc34)ccc12
Result string: < 0.05 µM
